Molecular target: T1, monkey CD22 protein (ACROBiosystems, catalog number SI2-R52Ha) (monkey, UniProt F6W485 20-688)
T1 construct: commercial protein; also called monkey CD22-ECD; monkey CD22-ECD-His
T1 sequence: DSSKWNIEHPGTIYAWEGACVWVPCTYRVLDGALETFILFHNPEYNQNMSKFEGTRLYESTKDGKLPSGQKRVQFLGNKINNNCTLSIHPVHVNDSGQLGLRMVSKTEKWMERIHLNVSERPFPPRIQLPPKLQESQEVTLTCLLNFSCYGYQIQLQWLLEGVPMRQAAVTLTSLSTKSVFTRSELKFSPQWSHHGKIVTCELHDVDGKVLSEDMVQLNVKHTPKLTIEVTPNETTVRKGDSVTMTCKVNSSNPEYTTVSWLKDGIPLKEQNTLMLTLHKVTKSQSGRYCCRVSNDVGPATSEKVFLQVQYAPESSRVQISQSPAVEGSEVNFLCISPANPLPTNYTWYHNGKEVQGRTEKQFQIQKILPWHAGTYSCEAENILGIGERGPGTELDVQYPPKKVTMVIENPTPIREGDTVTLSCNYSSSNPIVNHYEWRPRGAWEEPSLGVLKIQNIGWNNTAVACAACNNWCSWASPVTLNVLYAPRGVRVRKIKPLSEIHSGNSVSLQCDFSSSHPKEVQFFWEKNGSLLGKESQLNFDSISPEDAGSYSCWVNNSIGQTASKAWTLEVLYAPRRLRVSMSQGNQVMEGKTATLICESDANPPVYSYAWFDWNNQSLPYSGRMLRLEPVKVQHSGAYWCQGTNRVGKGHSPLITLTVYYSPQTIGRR
Assay: ELISA, coated monkey CD22 protein, antibody 10 nM
Procedure: In order to detect the binding activity of CD22 human-murine chimeric antibodies to CD22 protein, the purified human CD22-ECD-His protein obtained in Example 2 was diluted with PBS to a final concentration of 2 μg/mL, and then added to 96-well ELISA plate at 100 μl/well. The plate was sealed with plastic film and incubated overnight at 4° C., the plate was washed 2 times with PBS the next day, and then a blocking solution [PBS+2% (w/w) BSA] was added for blocking at room temperature for 2 hours. […]
measurement-type: OD450 (OD450)
Just the number please, in OD450, no unit attached.

The recorded OD450 for F2.180.16 (antibody, human IgG1, lambda, V domains shown, human-murine chimeric IgG1 lambda) VH: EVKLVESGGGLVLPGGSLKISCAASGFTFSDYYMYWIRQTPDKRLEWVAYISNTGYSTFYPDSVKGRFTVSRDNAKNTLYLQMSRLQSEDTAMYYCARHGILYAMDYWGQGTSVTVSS VL: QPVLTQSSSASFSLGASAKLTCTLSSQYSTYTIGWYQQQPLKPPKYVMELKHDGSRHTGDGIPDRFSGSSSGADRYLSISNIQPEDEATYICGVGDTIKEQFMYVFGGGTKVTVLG is 0.06

OD450 for F1.60.9 (antibody, human IgG1, kappa, V domains shown, human-murine chimeric IgG1 kappa) VH: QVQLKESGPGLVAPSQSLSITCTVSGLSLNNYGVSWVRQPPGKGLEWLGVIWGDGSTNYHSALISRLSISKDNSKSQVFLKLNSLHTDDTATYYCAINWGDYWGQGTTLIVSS VL: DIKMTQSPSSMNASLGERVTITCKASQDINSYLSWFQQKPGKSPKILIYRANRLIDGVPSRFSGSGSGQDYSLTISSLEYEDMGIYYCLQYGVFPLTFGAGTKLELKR is 0.07

Lab note: F2.173.9 (antibody, human IgG1, lambda, V domains shown, human-murine chimeric IgG1 lambda) VH: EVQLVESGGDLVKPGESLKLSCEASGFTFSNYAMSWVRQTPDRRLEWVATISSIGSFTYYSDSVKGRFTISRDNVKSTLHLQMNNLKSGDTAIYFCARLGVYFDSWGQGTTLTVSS VL: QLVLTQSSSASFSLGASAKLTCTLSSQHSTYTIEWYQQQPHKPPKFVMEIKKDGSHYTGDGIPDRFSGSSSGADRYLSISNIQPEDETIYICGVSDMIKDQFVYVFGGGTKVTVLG gave OD450 of 1.12
